SYSTEM: recombinant human α1D receptor (Homo sapiens, UniProt P25100)
Construct: expressed in transfected cells; host or cells: human embryonic kidney 293 cells (HEK93 [sic]), membranes
Sequence (P25100 whole entry): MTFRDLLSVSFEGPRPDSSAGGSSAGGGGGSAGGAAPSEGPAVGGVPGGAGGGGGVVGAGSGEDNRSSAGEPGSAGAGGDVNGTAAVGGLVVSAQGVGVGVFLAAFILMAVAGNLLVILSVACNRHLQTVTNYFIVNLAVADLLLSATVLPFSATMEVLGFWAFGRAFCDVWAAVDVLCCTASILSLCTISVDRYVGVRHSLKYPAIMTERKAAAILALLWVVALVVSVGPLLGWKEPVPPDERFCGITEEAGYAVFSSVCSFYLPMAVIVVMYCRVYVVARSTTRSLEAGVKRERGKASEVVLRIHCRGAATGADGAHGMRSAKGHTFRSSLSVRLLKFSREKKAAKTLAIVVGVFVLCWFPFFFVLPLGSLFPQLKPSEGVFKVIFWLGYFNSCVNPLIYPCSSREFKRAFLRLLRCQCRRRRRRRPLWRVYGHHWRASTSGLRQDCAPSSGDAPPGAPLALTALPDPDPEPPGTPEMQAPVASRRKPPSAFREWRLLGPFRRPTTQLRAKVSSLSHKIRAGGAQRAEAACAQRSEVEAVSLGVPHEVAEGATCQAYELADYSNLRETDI
ASSAY NOTES: Adrenergic α1D selectivity assay, [3H]-prazosin binding to membranes
MEASUREMENT PARAMETERS: inhibition of [3H]-prazosin binding, HEK cell membranes, read-out: α1 bind pIC50 (converted)
Where a name gives a salt, the structure may show the parent alone.
READOUT NAME: IC50 (nM)

O=C1COc2c(CCNCCN(C(=O)CCNCCc3cccc(Cl)c3)C3CCCCCC3)ccc(O)c2N1 [Example 68, bis(trifluoroacetate)] = 158

[I] CC(C)[C@@H](C)N(CCNCCc1ccc(O)c2c1OCC(=O)N2)C(=O)CCNCCc1ccc(Cl)c(Cl)c1 [Example 59, dihydrochloride]
[II] CCCC[C@@H](C)N(CCNCCc1ccc(O)c2c1OCC(=O)N2)C(=O)CCNCCc1ccc(Cl)s1 [Example 49, bis(trifluoroacetate)]
Parameter metric = IC50. Return the lower-valued option from I and II . Pick one and reply with its label. I

----------
SYSTEM: recombinant human adrenergic beta 1 receptors (Homo sapiens, UniProt P08588)
Construct: purchased Euroscreen
Sequence (P08588 whole entry): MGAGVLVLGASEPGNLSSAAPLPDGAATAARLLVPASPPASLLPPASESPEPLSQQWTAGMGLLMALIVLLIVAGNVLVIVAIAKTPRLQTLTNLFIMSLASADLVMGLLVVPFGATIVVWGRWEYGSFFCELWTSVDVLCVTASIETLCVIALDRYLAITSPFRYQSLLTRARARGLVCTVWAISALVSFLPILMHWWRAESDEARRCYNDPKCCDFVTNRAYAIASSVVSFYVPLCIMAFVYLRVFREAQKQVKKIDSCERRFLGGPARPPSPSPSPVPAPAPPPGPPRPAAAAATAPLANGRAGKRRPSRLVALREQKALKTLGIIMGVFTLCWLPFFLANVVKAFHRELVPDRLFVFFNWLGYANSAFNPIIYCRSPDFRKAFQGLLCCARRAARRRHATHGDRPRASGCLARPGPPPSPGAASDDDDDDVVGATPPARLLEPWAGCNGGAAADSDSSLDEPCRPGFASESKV
ASSAY NOTES: Adrenergic β1 selectivity assay, [125I]-Iodocyanopindolol binding to membranes
MEASUREMENT PARAMETERS: inhibition of [125I]-Iodocyanopindolol binding, read-out: β1 bind pIC50 (converted)
READOUT NAME: IC50 (nM)

Example entries and their recorded answers appear below.
CCCC[C@@H](C)N(CCNCCc1ccc(O)c2c1OCC(=O)N2)C(=O)CCNCCc1cc(C)ccc1F [Example 56, bis(trifluoroacetate)] = 2000
O=C(CCNCCc1cc(F)ccc1F)N(CCNCCc1ccc(O)c2[nH]c(=O)ccc12)C1CCCCC1 [Example 17, bis(trifluoroacetate)] = 12600

[1] O=C1COc2c(CCNCCN(C(=O)CCNCCc3ccccc3)C3CCCCCC3)ccc(O)c2N1 [Example 24, bis(trifluoroacetate)]
[2] CCCC[C@@H](C)N(CCNCCc1ccc(O)c2c1OCC(=O)N2)C(=O)CCNCCc1ccc(Cl)s1 [Example 49, bis(trifluoroacetate)]
Parameter metric = IC50. Return the lower-valued option from 1 and 2 . Pick one and reply with its label. 1
(1: 631 nM, 2: 1000 nM)

----------
SYSTEM: recombinant human Dopamine Subtype D2s receptors (Homo sapiens, UniProt P14416)
Construct: purchased Perkin Elmer
Sequence (P14416 1-414 isoform P14416-2): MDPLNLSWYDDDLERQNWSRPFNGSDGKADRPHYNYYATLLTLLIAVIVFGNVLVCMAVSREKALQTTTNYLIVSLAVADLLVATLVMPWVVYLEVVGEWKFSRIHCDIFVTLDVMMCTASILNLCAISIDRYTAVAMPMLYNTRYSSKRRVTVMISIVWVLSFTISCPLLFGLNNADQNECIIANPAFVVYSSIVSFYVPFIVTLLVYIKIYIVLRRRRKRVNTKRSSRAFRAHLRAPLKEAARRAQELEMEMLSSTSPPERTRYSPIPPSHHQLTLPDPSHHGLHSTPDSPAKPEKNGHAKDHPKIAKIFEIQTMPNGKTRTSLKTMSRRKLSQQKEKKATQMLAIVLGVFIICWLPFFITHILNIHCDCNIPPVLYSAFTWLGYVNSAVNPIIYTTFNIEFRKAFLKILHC
ASSAY NOTES: Dopamine D2 selectivity assay, [3H]-spiperone binding to membranes
MEASUREMENT PARAMETERS: inhibition of [3H]-spiperone binding, read-out: D2 bind pIC50 (converted)
Counter-ions that a name gives are not always drawn.
READOUT NAME: IC50 (µM)

O=C1Cc2c(CCNCCN(C(=O)CCNCCc3cccc(F)c3)C3CCCCC3)ccc(O)c2N1 [Example 20, dihydrobromide] = 0.398

[a] CCCC[C@@H](C)N(CCNCCc1ccc(O)c2c1OCC(=O)N2)C(=O)CCNCCc1cc(F)cc(Cl)c1 [Example 50, bis(trifluoroacetate)]
[b] O=C1COc2c(CCNCCN(C(=O)CCNCCc3ccccc3)C3CCCCCC3)ccc(O)c2N1 [Example 24, bis(trifluoroacetate)]
Parameter metric = IC50. Return the lower-valued option from a and b . Pick one and reply with its label. a
(a: 0.0316 µM, b: 0.158 µM)

----------
SYSTEM: recombinant human Dopamine Subtype D2s receptors (Homo sapiens, UniProt P14416)
Construct: purchased Perkin Elmer
ASSAY NOTES: Dopamine D2 selectivity assay, [3H]-spiperone binding to membranes
MEASUREMENT PARAMETERS: inhibition of [3H]-spiperone binding, read-out: D2 bind pIC50 (converted)
READOUT NAME: IC50 (µM)

Example entries and their recorded answers appear below.
O=C(CCNCCc1ccc(F)cc1)N(CCNCCc1ccc(O)c2[nH]c(=O)ccc12)C1CCCCCC1 [Example 6, bis(trifluoroacetate)] = 0.251
CCCC[C@@H](C)N(CCNCCc1ccc(O)c2c1OCC(=O)N2)C(=O)CCNCCc1ccc(Cl)cc1 [Example 45, bis(trifluoroacetate)] = 0.0794
O=C1COc2c(CCNCCN(C(=O)CCNCCc3cccc(Cl)c3)C3CCCCC3)ccc(O)c2N1 [Example 27, bis(trifluoroacetate)] = 0.251
O=C(CCNCCc1ccc(Cl)cc1)N(CCNCCc1ccc(O)c2[nH]c(=O)ccc12)C1CCCCCC1 [Example 4, bis(trifluoroacetate)] = 0.0794

[1] O=C1COc2c(CCNCCN(C(=O)CCNCCc3cccc(F)c3F)C3CCCCC3)ccc(O)c2N1 [Example 36, bis(trifluoroacetate)]
[2] O=C(CCNCCc1cccc(Cl)c1)N(CCNCCc1ccc(O)c2[nH]c(=O)ccc12)C1CCCCCC1 [Example 3, bis(trifluoroacetate)]
Lab note: check whether 1 or 2 shows the higher recorded IC50. Pick one and reply with its label. 1

----------
SYSTEM: recombinant human α1D receptor (Homo sapiens)
Construct: expressed in transfected cells; host or cells: human embryonic kidney 293 cells (HEK93 [sic]), membranes
ASSAY NOTES: Adrenergic α1D selectivity assay, [3H]-prazosin binding to membranes
MEASUREMENT PARAMETERS: inhibition of [3H]-prazosin binding, HEK cell membranes, read-out: α1 bind pIC50 (converted)
Where a name gives a salt, the structure may show the parent alone.
READOUT NAME: IC50 (nM)

Example entries and their recorded answers appear below.
CCCC[C@@H](C)N(CCNCCc1ccc(O)c2c1OCC(=O)N2)C(=O)CCNCCc1cccc(Cl)c1 [Example 44, bis(trifluoroacetate)] = 50.1
O=C(CCOCCc1cc(F)cc(F)c1)N(CCNCCc1ccc(O)c2[nH]c(=O)ccc12)C1CCCCC1 [Example 78, trifluoroacetate] = 794
O=C(CCNCCc1cccc(Cl)c1)N(CCNCCc1ccc(O)c2[nH]c(=O)ccc12)C1CCCCC1 [Example 13, bis(trifluoroacetate)] = 79.4

[I] O=C1COc2c(CCNCCN(C(=O)CCOCCc3ccccc3F)C3CCCCC3)ccc(O)c2N1 [Example 76, trifluoroacetate]
[II] CCCC[C@@H](C)N(CCNCCc1ccc(O)c2c1OCC(=O)N2)C(=O)CCNCCc1cccc(F)c1F [Example 53, bis(trifluoroacetate)]
Lab note: check whether I or II shows the higher recorded IC50. Pick one and reply with its label. I
(I: 1000 nM, II: 200 nM)

----------
SYSTEM: Adrenergic β2 (Homo sapiens)
Construct: Adherent H292 cells were removed from tissue culture flasks; endogenous in cells; host or cells: H292 cells
Sequence (P07550 whole entry): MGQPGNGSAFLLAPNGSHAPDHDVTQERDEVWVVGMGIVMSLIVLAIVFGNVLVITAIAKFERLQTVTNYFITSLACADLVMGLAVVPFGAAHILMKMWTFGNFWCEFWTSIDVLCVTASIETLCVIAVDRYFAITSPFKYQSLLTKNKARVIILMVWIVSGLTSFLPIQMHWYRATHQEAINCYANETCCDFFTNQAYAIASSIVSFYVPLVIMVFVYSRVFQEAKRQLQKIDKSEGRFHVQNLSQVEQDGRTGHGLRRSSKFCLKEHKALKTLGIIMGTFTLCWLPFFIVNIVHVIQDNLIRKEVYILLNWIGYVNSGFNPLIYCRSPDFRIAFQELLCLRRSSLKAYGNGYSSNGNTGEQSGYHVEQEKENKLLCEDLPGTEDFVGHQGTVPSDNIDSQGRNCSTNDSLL
ASSAY NOTES: Adrenergic β2 mediated cAMP production in H292 cells (AlphaScreen cAMP detection)
Assay type: cell-based
Design: key: fraction of formoterol maximum activity (formoterol = 1)
MEASUREMENT PARAMETERS: Intrinsic Activity as a fraction relative to the maximum activity determined for formoterol
READOUT NAME: β2 Int Act

CCCC[C@@H](C)N(CCNCCc1ccc(O)c2c1OCC(=O)N2)C(=O)CCNCCc1ccc(Cl)s1 [Example 49, bis(trifluoroacetate)] = 1.01
CCCC[C@@H](C)N(CCNCCc1ccc(O)c2c1OCC(=O)N2)C(=O)CCNCCc1cccc(Cl)c1 [Example 44, bis(trifluoroacetate)] = 0.89
O=C(CCNCCc1cccc(F)c1)N(CCNCCc1ccc(O)c2[nH]c(=O)ccc12)C1CCCCC1 = 0.87
Cl.O=C(CCOCCc1ccc(F)cc1)N(CCNCCc1ccc(O)c2[nH]c(=O)ccc12)C1CCCCC1 = 0.85
O=C1COc2c(CCNCCN(C(=O)CCNCCc3cccc(F)c3F)C3CCCCC3)ccc(O)c2N1 [Example 36, bis(trifluoroacetate)] = 0.91

[a] O=C1COc2c(CCNCCN(C(=O)CCNCCc3cccc(Cl)c3)C3CCCCCC3)ccc(O)c2N1 [Example 68, bis(trifluoroacetate)]
[b] CCOc1cccc(CCNCCC(=O)N(CCNCCc2ccc(O)c3[nH]c(=O)ccc23)C2CCCCCC2)c1 [Example 11, bis(trifluoroacetate)]
Parameter metric = β2 Int Act. Return the lower-valued option from a and b . Pick one and reply with its label. b
(b: 0.65, a: 0.93)

----------
SYSTEM: recombinant human Dopamine Subtype D2s receptors (Homo sapiens)
Construct: purchased Perkin Elmer
ASSAY NOTES: Dopamine D2 selectivity assay, [3H]-spiperone binding to membranes
MEASUREMENT PARAMETERS: inhibition of [3H]-spiperone binding, read-out: D2 bind pIC50 (converted)
Counter-ions that a name gives are not always drawn.
READOUT NAME: IC50 (nM)

O=C1COc2c(CCNCCN(C(=O)CCNCCc3ccc(Cl)c(Cl)c3)C3CCCCC3)ccc(O)c2N1 [Example 30, bis(trifluoroacetate)] = 50.1
O=C1COc2c(CCNCCN(C(=O)CCNCCc3cccc(Cl)c3F)C3CCCCC3)ccc(O)c2N1 [Example 39, bis(trifluoroacetate)] = 100
CC[C@@H](C)N(CCNCCc1ccc(O)c2c1OCC(=O)N2)C(=O)CCNCCc1ccc(Cl)c(Cl)c1 [Example 58, dihydrochloride] = 39.8

[I] CCCC[C@@H](C)N(CCNCCc1ccc(O)c2c1OCC(=O)N2)C(=O)CCNCCc1ccc(F)c(C)c1 [Example 47, bis(trifluoroacetate)]
[II] O=C1COc2c(CCNCCN(C(=O)CCNCCc3ccc(Cl)cc3Cl)C3CCCCC3)ccc(O)c2N1 [Example 31, bis(trifluoroacetate)]
[III] CCCC[C@@H](C)N(CCNCCc1ccc(O)c2c1OCC(=O)N2)C(=O)CCNCCc1ccccc1Cl [Example 46, bis(trifluoroacetate)]
Put the items in sequence by IC50, from largest down. Provide your answer as the labels ordered per the instruction. II, I, III
(II: 100 nM, I: 50.1 nM, III: 15.8 nM)
